experiment: Chemical stability in MV-4-11 medium; settings: 37° C., concentration 10 μM

compound | t_half [hours]
Nc1cccc2c1CN(C1CCC(=O)NC1=O)C2=O (centres unmarked) [lenalidomide] | D (D<5 hrs)
O=C1CCC(N2Cc3cc(CNC(=O)C(F)(F)c4ccc(Cl)cc4)ccc3C2=O)C(=O)N1 (centres unmarked) [eragidomide] | D (D<5 hrs)
Nc1cccc2c1C(=O)N(C1CCC(=O)NC1=O)C2=O (centres unmarked) [pomalidomide] | D (D<5 hrs)

---

Biological target: [SALL4 ZF2]-[compound]-[CRBN/DDB1] ternary complex (Homo sapiens, UniProt Q96SW2+Q9UJQ4)
Construct: SALL4 ZF2
Sequence (Q9UJQ4 410-432 limits assumed): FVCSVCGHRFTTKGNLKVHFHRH
Sequence (Q96SW2 whole entry): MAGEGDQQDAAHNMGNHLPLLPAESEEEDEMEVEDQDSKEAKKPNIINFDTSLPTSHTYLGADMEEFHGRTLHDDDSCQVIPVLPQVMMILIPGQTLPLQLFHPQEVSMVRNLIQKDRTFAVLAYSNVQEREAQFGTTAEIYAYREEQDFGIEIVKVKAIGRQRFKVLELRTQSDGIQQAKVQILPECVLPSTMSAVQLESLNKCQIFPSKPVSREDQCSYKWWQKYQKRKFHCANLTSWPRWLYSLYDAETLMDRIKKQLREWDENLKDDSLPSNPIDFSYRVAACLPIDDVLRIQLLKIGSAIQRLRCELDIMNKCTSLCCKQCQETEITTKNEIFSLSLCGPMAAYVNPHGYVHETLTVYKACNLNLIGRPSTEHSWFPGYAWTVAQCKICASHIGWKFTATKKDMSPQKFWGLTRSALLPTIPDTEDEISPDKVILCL
Sequence (Q16531 whole entry partner): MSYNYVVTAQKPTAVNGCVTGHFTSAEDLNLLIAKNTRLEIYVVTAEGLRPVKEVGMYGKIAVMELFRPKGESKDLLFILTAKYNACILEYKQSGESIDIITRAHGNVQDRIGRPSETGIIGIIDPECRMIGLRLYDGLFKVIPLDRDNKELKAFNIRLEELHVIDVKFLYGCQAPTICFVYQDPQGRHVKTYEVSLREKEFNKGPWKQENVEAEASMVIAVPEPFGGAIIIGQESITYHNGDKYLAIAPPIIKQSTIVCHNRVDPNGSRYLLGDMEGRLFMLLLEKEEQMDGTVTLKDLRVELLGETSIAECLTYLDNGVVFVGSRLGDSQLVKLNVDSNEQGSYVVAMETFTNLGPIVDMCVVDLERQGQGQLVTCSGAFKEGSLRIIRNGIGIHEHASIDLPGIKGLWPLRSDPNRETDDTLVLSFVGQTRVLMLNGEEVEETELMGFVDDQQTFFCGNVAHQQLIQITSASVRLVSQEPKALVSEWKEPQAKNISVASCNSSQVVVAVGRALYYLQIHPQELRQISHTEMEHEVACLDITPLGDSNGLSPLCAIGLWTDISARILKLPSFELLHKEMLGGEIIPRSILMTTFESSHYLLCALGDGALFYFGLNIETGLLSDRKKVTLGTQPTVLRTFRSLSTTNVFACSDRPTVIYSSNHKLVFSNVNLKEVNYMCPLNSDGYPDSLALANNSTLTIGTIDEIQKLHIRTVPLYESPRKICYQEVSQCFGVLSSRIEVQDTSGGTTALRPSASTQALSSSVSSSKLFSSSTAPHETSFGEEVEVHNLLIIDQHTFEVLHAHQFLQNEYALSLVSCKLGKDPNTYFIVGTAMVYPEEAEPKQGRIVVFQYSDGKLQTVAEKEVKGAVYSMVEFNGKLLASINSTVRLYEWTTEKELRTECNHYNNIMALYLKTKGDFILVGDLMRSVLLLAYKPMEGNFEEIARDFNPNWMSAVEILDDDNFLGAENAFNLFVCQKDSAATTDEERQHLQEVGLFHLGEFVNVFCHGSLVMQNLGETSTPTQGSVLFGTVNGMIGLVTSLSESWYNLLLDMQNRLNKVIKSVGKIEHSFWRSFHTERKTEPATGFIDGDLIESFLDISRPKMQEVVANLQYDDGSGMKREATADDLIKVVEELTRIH
Assay: AlphaLISA assay for off-target recruitment detection, SALL4 ZF2
Type: binding
Settings: 1 μM compound; normalized to Lenalidomide; read-out: Normalized ternary complex response, SALL4 ZF2
Description: The ability of the molecular glue compounds of the invention to mediate the proximity of CRBN with its known neo-substrates (shown in Table 3) was assessed using AlphaLISA to detect the formation of a [neo-substrate]-[compound of formula (I)]-[CRBN/DDB1] ternary complex. […] The read-out was performed with PerkinElmer Enspire Multimode Plate Reader (method for AlphaLISA 384-well low volume, Filterset: λexc=680 nm, λem=615 nm). […]
property: activation at 1 µM

Here is how some molecules turned out for activation at 1 µM.
molecule | activation at 1 µM
Cc1nc2cc(COC(=O)NC3CCN(c4ccccc4)CC3)ccc2cc1C1CCC(=O)NC1=O (stereo not shown) | < 10%
Cc1ccc(NC(=O)OCc2ccc3nc(C)c(N4CCC(=O)NC4=O)cc3c2)cc1Cl | 25 to 50%
Cc1nc2ccc(CNC(=O)Nc3cc(C(C)(C)C)no3)cc2cc1N1CCC(=O)NC1=O | 25 to 50%
Cc1nc2ccc(COC(=O)Nc3cc(OC(F)(F)F)ccc3F)cc2cc1C1CCC(=O)NC1=O (stereo not shown) | ≥ 50%
Cc1ccc(NC(=O)OCc2ccc3cc(C4(F)CCC(=O)NC4=O)c(C)nc3c2)cc1Cl (stereo not shown) | < 10%
Cc1nc2ccc(CNC(=O)C(=O)N3CCC(C(C)(C)C)CC3)cc2cc1C1CCC(=O)NC1=O (stereo not shown) | 25 to 50%
Cc1ccc(NC(=S)NCc2ccc3cc(C4CCC(=O)NC4=O)c(C)nc3c2)cc1Cl (stereo not shown) | < 10%
Cc1nc2cc(COC(=O)Nc3nc(C(C)(C)C)no3)ccc2cc1C1CCC(=O)NC1=O (stereo not shown) | < 10%
Cc1nc2cc(COC(=O)Nc3cc(Cl)c(C)c(CN4CCOCC4)c3)ccc2cc1C1CCC(=O)NC1=O (stereo not shown) | < 10%
Cc1nc2cc(COC(=O)Nc3cc(C(C)(C)C)n[nH]3)ccc2cc1C1CCC(=O)NC1=O (stereo not shown) | < 10%

Please go through the list and note activation at 1 µM for each molecule.
1. Cc1ccc(NC(=O)CCc2ccc3cc(C4CCC(=O)NC4=O)c(C)nc3c2)cc1Cl (stereo not shown)
2. COc1cnc(NC(=O)OCc2ccc3cc(C4CCC(=O)NC4=O)c(C)nc3c2)cn1 (stereo not shown)
3. Cc1nc2cc(COC(=O)Nc3cc(C(F)(F)F)n[nH]3)ccc2cc1C1CCC(=O)NC1=O (stereo not shown)
4. COc1cc(C)c(Cl)cc1NC(=O)OCc1ccc2cc(C3CCC(=O)NC3=O)c(C)nc2c1 (stereo not shown)
5. Cc1ccc(-c2nnc(NCc3ccc4cc(C5CCC(=O)NC5=O)c(C)nc4c3)o2)cc1Cl (stereo not shown)

< 10%
< 10%
< 10%
< 10%
< 10%

Data request, read-out activation at 1 µM, for Cc1ccc(NC(=O)OCc2ccc3cc(C4CCC(=O)NC4=O)c(C)nc3c2)cc1Cl (stereo not shown)
< 10%
